system: T-47D breast; assay: NCI tumour cell line growth inhibition, 48 h
I'd be grateful if you could share measured TGI for these entries.

The reported TGI of the compound CCCCCCCCCCCCCCCCCCNc1ccn(C2OC(COP(=O)(O)OCC3OC(n4cc(F)c(=O)[nH]c4=O)CC3O)C(O)C2O)c(=O)n1 (stereo not drawn) was > 100 µM

Value of TGI reported for the compound "CC1=NN(C(=O)c2ccccc2O)C(=O)/C1=C/c1ccco1" is > 100 µM

// TGI lookup, compound = "c1ccc2[nH]c(-c3ccc(-c4nccc5c4[nH]c4ccccc45)cc3)nc2c1" , result: 6.19 µM

For record "CNC1=C(C)C(=O)C(=O)C([C@H](C)CCC=C(C)C)=C1O" the listed TGI is 86.3 µM

Measured TGI of "CCOC(=O)/C(C#N)=C\c1ccc(N(CCC(=O)O)CCC(=O)O)c(I)c1" : > 10 µM

Please fill in: TGI reported for "CC(C)=CCC/C(C)=C/CC/C(C)=C/CC/C(C)=C/C=C/C=C(\C)CC/C=C(\C)CC/C=C(\C)CCC=C(C)C" = > 100 µM

GET /value?item= COc1cc2c(c(O)c1OC)-c1c(cc(OC)c(OC)c1OC)CC(C)C(C)C2 (stereo not drawn) &field=TGI returns > 100 µM

Form field TGI, entry "FC(F)(F)c1ccc(Nc2nc(-c3c(C(F)(F)F)nc4ccccn34)cs2)cc1" : 9.07 µM

So, "C=CCN1C(=O)/C(=C/c2ccc(OC)cc2)N=C1SC/C=C/C" ? Its TGI was 94.2 µM

Short answer for "Cn1c2ccccc2c2c(-c3ccccc3)cc3c(c21)C(=O)C=CC3=O" : TGI was 4.9 µM

In plain terms, "COc1cc(/C=C/C(=O)c2cccc(Nc3nc(Nc4ccccc4)nc(Nc4ccccc4)n3)c2)cc(OC)c1OC" has a documented TGI of > 59 µM

# TGI (compound: "Cn1c2ccccc2n2c(N=O)c(-c3ccccc3)nc12" ) is > 100 µM

Please fill in: TGI reported for "CN(CCCn1c2c(c3ccccc3c1=O)C(=O)c1ccccc1-2)CCCn1c2c(c3ccccc3c1=O)C(=O)c1ccccc1-2" = 18.3 µM

Per the records, this compound ( "COC(=O)/C=C(/C)n1nc2ccccc2n1" ) has TGI equal to > 100 µM

The compound listed as COC(=O)C1(C)CCC(c2ccc(C)cc2)=C(CC(=O)O)C1 (stereo not drawn) shows TGI equal to > 100 µM

// sample "NN(CC(=O)O)CC(=O)O" , its TGI was > 100 µM

The value of TGI measured for the compound Nc1ncnn2c(C3OC(CO)C(O)C3O)ccc12 (stereo not drawn) turned out to be 6.93 µM

Measured TGI, O=C1/C(=C/c2ccccc2O)N=C(c2ccccc2)N1C1Nc2cc3c(cc2S1)NC(N1C(=O)/C(=C/c2ccccc2O)N=C1c1ccccc1)S3 (stereo not drawn) : > 100 µM

Data point: "COc1ccc(-c2nc(-c3nc4ccc(OC)cc4[nH]3)c3ccccn23)cc1" ; TGI = 9.75 µM

Value of TGI reported for the compound "O=C(CCCCCCCCC(=O)N/N=C\c1ccccc1O)N/N=C\c1ccccc1O" is > 49.4 µM

Memo: "N#Cc1c(N)nc(-c2ccc(Cl)cc2)c2c1-c1ccccc1S(=O)(=O)CC2" , reported TGI: > 100 µM

The recorded TGI for O=C1c2cc(Cl)ccc2-n2cnnc2C2CSCN12 (stereo not drawn) is > 100 µM

For record "Cn1c(=O)c(Br)c(C=O)n(CCO[N+](=O)[O-])c1=O" the listed TGI is 14.6 µM
